B1: BTBD10 (parent)
chain: FVYENAKEGARNIRTSERVTLIVD

Variants of: B1
Assay: protein stability index of a GFP-peptide fusion (GPS, HEK-293T) (PSI 1-6); higher = more stable;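 note: lentivirally expressed fusions sorted by FACS into six bins by GFP to DsRed ratio, PSI derived from sequencing read proportions per bin multiplied by bin number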
Settings: c terminus: a fixed tail appended
This section presents variants with their documented protein stability index values.

variant-designation: A10D
protein stability index: 2.26

variant-designation: I13W
protein stability index: 1.68

variant-designation: L21M
protein stability index: 1.99

variant-designation: T15L
protein stability index: 1.47

variant-designation: G9T
protein stability index: 2.09

variant-designation: E4A
protein stability index: 1.82

variant-designation: V2D
protein stability index: 3.56

variant-designation: I13Q
protein stability index: 2.38

variant-designation: A10Y
protein stability index: 1.86

variant-designation: S16E
protein stability index: 2.57

variant-designation: N5T
protein stability index: 2.25

variant-designation: N12G
protein stability index: 1.98

variant-designation: N5R
protein stability index: 1.95

variant-designation: N12Q
protein stability index: 1.7

variant-designation: E4R
protein stability index: 1.91

variant-designation: G9L
protein stability index: 2.12

variant-designation: N5C
protein stability index: 2.42

variant-designation: S16I
protein stability index: 2.38

variant-designation: E4T
protein stability index: 2.18

variant-designation: G9K
protein stability index: 1.7

variant-designation: I13V
protein stability index: 2.06

variant-designation: S16P
protein stability index: 2.33

variant-designation: N12E
protein stability index: 2.08

variant-designation: I22G
protein stability index: 1.72

variant-designation: T20R
protein stability index: 1.81

variant-designation: T20V
protein stability index: 1.38

variant-designation: V23T
protein stability index: 2.16

variant-designation: R14V
protein stability index: 2.05

variant-designation: R14F
protein stability index: 2.38

variant-designation: E17T
protein stability index: 1.23

variant-designation: R18P
protein stability index: 2.31

variant-designation: V23L
protein stability index: 2.07

variant-designation: R11A
protein stability index: 2.29

variant-designation: T20E
protein stability index: 2.06

variant-designation: R18Y
protein stability index: 1.44

variant-designation: N12K
protein stability index: 2.19

variant-designation: Y3P
protein stability index: 1.72

variant-designation: N12F
protein stability index: 2.65

variant-designation: V23R
protein stability index: 2.68

variant-designation: F1Y
protein stability index: 2.27

variant-designation: R14T
protein stability index: 2.14

variant-designation: I13M
protein stability index: 1.64
